Collected melting point values appear next to each entry.

The recorded melting point for entry `CC(=O)Oc1ccc(Cn2nc(N3CCCC3)n3c4ccc(Br)cc4c(=O)nc23)cc1` equals 199 °C

The recorded melting point for entry O=c1c2cc(Br)ccc2n2c(N3CCCC3)nnc2n1CC=Cc1ccccc1 [Compound 57] equals 152 to 155 °C

The recorded melting point for entry `Cn1c(=O)c2ccccc2n2c(N3CCCCCC3)nnc12` equals 199 to 203 °C

* * *

Collected melting point values appear next to each entry.
Return type: number; implicit unit °C.

Some solved cases for reference:
{"molecule": "O=c1c2cc(Br)ccc2n2c(N3CCCC3)nnc2n1Cc1ccc2c(c1)OCO2 (hydrate or solvate)", "value_measured": 194}
{"molecule": "Cc1ccc2c(=O)n(Cc3ccccc3)c3nnc(N4CCCCCC4)n3c2c1", "value_measured": 202}
{"molecule": "Nc1ccc2c(c1)c(=O)n(C/C=C/c1cccnc1)c1nnc(N3CCCC3)n21", "value_measured": 201}

The recorded melting point for entry `COC(=O)c1ccc(Cn2c(=O)c3cc(Br)ccc3n3c(N4CCCC4)nnc23)cc1` equals 205

The recorded melting point for entry `Cc1ccc2c(c1)c(=O)n(CC=Cc1ccccc1)c1nnc(N3CCCCCC3)n21` equals 195

The recorded melting point for entry `Cc1ccc2c(c1)c(=O)n(Cc1ccc(C#N)cc1)c1nnc(N(C)C)n21` equals 201

The recorded melting point for entry `COc1ccc(CCn2nc(N3CCCCCC3)n3c4ccc(Cl)cc4c(=O)nc23)cc1` equals 196

* * *

quantity_name: melting point

Some solved cases for reference:
{"compound": "COc1ccc(Cn2nc(N3CCCCCC3)n3c4ccc(Cl)cc4c(=O)nc23)cc1 [Compound 122]", "melting point": "164 to 165 °C"}
{"compound": "CN(C)C(=O)Cc1ccc(Cn2c(=O)c3cc(Br)ccc3n3c(N4CCCC4)nnc23)cc1 [Compound 242]", "melting point": "202 °C"}

The recorded melting point for entry O=c1c2cc(Br)ccc2n2c(N3CCCCC3)nnc2n1Cc1ccccc1 [Compound 178] equals 183 to 185 °C

* * *

quantity_name: melting point

{"compound_string": "O=c1c2cc(O)ccc2n2c(N3CCCC3)nnc2n1C/C=C/c1ccccc1", "melting point": "295 °C (dec.)"}
{"compound_string": "O=C(Cn1nc(N2CCCCCC2)n2c3ccc(Cl)cc3c(=O)nc12)c1ccccc1", "melting point": "230 to 232 °C"}

Let's switch to this compound now.
The recorded melting point for entry `CCn1c(=O)c2cc(Cl)ccc2n2c(N3CCCCCC3)nnc12` equals 98 to 100 °C

Reference source: patent US6828315B1
